Measured furin cleavage Z-score accompanies every entry in the list below.
Molecular target: furin, P09958;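 note: purified furin at 1:10 enzyme:substrate in 50 mM HEPES pH 7.5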
Sequence (P09958 whole entry): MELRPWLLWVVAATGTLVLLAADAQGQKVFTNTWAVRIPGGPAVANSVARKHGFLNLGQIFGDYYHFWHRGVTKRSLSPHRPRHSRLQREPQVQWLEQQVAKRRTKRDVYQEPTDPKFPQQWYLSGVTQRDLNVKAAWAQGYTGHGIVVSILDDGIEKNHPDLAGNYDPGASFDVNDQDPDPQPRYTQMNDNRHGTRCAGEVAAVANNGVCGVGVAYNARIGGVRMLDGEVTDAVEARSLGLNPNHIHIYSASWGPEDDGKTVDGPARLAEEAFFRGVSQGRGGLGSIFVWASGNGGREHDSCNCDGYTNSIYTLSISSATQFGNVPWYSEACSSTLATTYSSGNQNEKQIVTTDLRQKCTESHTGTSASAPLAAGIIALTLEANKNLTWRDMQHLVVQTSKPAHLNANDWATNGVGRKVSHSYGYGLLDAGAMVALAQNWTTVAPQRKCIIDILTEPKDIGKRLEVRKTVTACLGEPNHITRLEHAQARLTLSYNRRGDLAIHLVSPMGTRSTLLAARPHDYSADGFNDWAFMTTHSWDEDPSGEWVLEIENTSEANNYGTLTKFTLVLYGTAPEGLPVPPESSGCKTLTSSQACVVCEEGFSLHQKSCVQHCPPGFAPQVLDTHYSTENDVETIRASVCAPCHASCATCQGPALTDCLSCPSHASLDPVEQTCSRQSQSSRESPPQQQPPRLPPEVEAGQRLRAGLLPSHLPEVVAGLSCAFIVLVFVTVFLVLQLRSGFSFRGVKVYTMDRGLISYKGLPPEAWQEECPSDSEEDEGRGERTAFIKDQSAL
Experiment: furin cleavage Z-score vs untreated control; higher = more cleavage, active = 3.5 or more, inactive = 1 or less, 8 variable residues between constant flanks
Conditions: 15 min
This is one part of the list. How many sequences the whole screen found active is unknown.

> print(dat)
        macromolecule.sequence     readout.value
1  CAGHVKNGTMAGNASASA [HC1179]  0.821 (inactive)
2  CAIFRRRPRQAGNASASA [FS-801]     4.22 (active)
3  CAMEWCSQHLAGNASASA [HC1708]  0.726 (inactive)

IN: Give a short answer stating reported furin cleavage Z-score for CAAGVDAETHAGNASASA [HC350] .
OUT: -1.77 (inactive)

Sourced from the supplement of paper PMC3545927
